Biological target: recombinant human oxytocin receptors (Homo sapiens)
Construct: expressed in transfected cells; host or cells: HEK-293, transient expression; lysed and homogenized cells
Sequence (P30559 1-389): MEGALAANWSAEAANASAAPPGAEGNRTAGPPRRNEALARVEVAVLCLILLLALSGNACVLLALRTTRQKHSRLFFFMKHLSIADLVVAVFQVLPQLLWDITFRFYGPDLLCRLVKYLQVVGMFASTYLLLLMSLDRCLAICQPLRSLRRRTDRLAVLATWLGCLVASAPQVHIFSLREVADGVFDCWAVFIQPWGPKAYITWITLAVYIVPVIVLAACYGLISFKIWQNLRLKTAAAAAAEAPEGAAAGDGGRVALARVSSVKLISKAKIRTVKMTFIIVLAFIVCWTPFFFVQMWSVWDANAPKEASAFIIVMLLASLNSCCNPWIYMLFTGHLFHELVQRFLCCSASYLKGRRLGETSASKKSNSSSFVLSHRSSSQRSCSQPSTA
Assay: Oxytocin receptor binding assay
Conditions: selectivity for V1b over oxytocin receptor, quotient of Ki values
metric.name: Ki(h-OT)/Ki(h-V1b)

Please review the following examples before continuing.
molecule="CCOc1ncccc1C1(NC(=O)N2CCC(N3CCNCC3)CC2)C(=O)N(S(=O)(=O)c2ccc(OC)cc2OC)c2ccc(C#N)cc21 (racemic)" value_observed="++ (>25-50)"
molecule="CCOc1ncccc1C1(NC(=O)N2CCC(N3CCN(C)CC3)CC2)C(=O)N(S(=O)(=O)c2ccccc2OC)c2ccc(C#N)cc21 (racemic)" value_observed="+++ (>50)"
molecule="CCOc1ncccc1C1(NC(=O)N2CCC(N3CCN(CC)CC3)CC2)C(=O)N(S(=O)(=O)c2ccc(OC)cc2OC)c2ccc(C#N)cc21 (racemic) [Example 37]" value_observed="+++ (>50)"
molecule="CCOc1ncccc1C1(NC(=O)N2CCC(N3CCN(CC)CC3)CC2)C(=O)N(S(=O)(=O)c2ccc(OC)cc2OC)c2ccc(C#N)cc21 (single isomer, unassigned) [Example 37B]" value_observed="+++ (>50)"

Query the reported Ki(h-OT)/Ki(h-V1b) for recombinant human oxytocin receptors (Homo sapiens); item: CCOc1ccccc1S(=O)(=O)N1C(=O)C(NC(=O)N2CCN(C3CCN(C)CC3)CC2)(c2cccnc2OCC)c2cc(C#N)ccc21.O=C(O)C(F)(F)F (racemic)
+++ (>50)

Query the reported Ki(h-OT)/Ki(h-V1b) for recombinant human oxytocin receptors (Homo sapiens); item: CCOc1ncccc1C1(NC(=O)N2CCC(C3CCN(C)CC3)CC2)C(=O)N(S(=O)(=O)c2ccc(OC)cc2OC)c2ccc(C#N)cc21 (racemic)
+++ (>50)

Query the reported Ki(h-OT)/Ki(h-V1b) for recombinant human oxytocin receptors (Homo sapiens); item: CCOc1ncccc1C1(NC(=O)N2CCC(N3CCN(C)CC3)CC2)C(=O)N(S(=O)(=O)c2ccc(OC)cc2)c2ccc(C#N)cc21.O=C(O)C(F)(F)F (racemic)
++ (>25-50)

Query the reported Ki(h-OT)/Ki(h-V1b) for recombinant human oxytocin receptors (Homo sapiens); item: CCOc1ncccc1C1(NC(=O)N2CCC(N3CCN(CC)CC3)CC2)C(=O)N(S(=O)(=O)c2ccccc2)c2ccc(C#N)cc21 (racemic) [Example 40]
+++ (>50)

Query the reported Ki(h-OT)/Ki(h-V1b) for recombinant human oxytocin receptors (Homo sapiens); item: CCOc1ncccc1C1(NC(=O)N2CCN(C3CCN(CC)CC3)CC2)C(=O)N(S(=O)(=O)c2ccc(OC)cc2OC)c2ccc(C#N)cc21.O=C(O)C(F)(F)F (single isomer, unassigned)
+++ (>50)

Query the reported Ki(h-OT)/Ki(h-V1b) for recombinant human oxytocin receptors (Homo sapiens); item: CCCN1CCN(C2CCN(C(=O)NC3(c4cccnc4OCC)C(=O)N(S(=O)(=O)c4ccc(OC)cc4OC)c4ccc(C#N)cc43)CC2)CC1 (racemic)
+++ (>50)

Query the reported Ki(h-OT)/Ki(h-V1b) for recombinant human oxytocin receptors (Homo sapiens); item: CCOc1ncccc1C1(NC(=O)N2CCC(N3CCN(C)CC3)CC2)C(=O)N(S(=O)(=O)c2ccc(OC)cc2OC)c2ccc(C#N)cc21 (single isomer, unassigned) [Example 31B]
+++ (>50)

Query the reported Ki(h-OT)/Ki(h-V1b) for recombinant human oxytocin receptors (Homo sapiens); item: CCOc1ncccc1C1(NC(=O)N2CCC(C3CCN(CC)CC3)CC2)C(=O)N(S(=O)(=O)c2ccc(OC)cc2OC)c2ccc(C#N)cc21.O=C(O)C(F)(F)F (racemic) [Example 67]
+++ (>50)

Query the reported Ki(h-OT)/Ki(h-V1b) for recombinant human oxytocin receptors (Homo sapiens); item: "CCOc1ncccc1[C@]1(NC(=O)N2CCN(C3CCN(C)CC3)CC2)C(=O)N(S(=O)(=O)c2ccc(OC)cc2OC)c2ccc(C#N)cc21"
+++ (>50)

Query the reported Ki(h-OT)/Ki(h-V1b) for recombinant human oxytocin receptors (Homo sapiens); item: CCOc1ncccc1C1(NC(=O)N2CCC(C3CCN(C)CC3)CC2)C(=O)N(S(=O)(=O)c2ccc(OC)cc2OC)c2ccc(C#N)cc21.O=C(O)C(F)(F)F (single isomer, unassigned) [Example 61B]
+++ (>50)

Query the reported Ki(h-OT)/Ki(h-V1b) for recombinant human oxytocin receptors (Homo sapiens); item: CCOc1ncccc1C1(NC(=O)N2CCC(N3CCN(C)CC3)CC2)C(=O)N(S(=O)(=O)c2ccc(OC)cc2OC)c2ccc(C#N)cc21 (racemic) [Example 31]
+++ (>50)

Query the reported Ki(h-OT)/Ki(h-V1b) for recombinant human oxytocin receptors (Homo sapiens); item: CCOc1ncccc1C1(NC(=O)N2CCC(C3CCN(CC)CC3)CC2)C(=O)N(S(=O)(=O)c2ccc(OC)cc2OC)c2ccc(C#N)cc21.O=C(O)C(F)(F)F (single isomer, unassigned) [Example 67B]
+++ (>50)

Query the reported Ki(h-OT)/Ki(h-V1b) for recombinant human oxytocin receptors (Homo sapiens); item: CCOc1ncccc1C1(NC(=O)N2CCN(C3CCN(C)CC3)CC2)C(=O)N(S(=O)(=O)c2ccccc2OC)c2ccc(C#N)cc21 (racemic)
+++ (>50)

Query the reported Ki(h-OT)/Ki(h-V1b) for recombinant human oxytocin receptors (Homo sapiens); item: CCOc1ncccc1C1(NC(=O)N2CCC(C3CCNCC3)CC2)C(=O)N(S(=O)(=O)c2ccc(OC)cc2OC)c2ccc(C#N)cc21.O=C(O)C(F)(F)F.O=C(O)C(F)(F)F (racemic)
++ (>25-50)

Query the reported Ki(h-OT)/Ki(h-V1b) for recombinant human oxytocin receptors (Homo sapiens); item: CCOc1ncccc1C1(NC(=O)N2CCC(N3CCN(CC)CC3)CC2)C(=O)N(S(=O)(=O)c2ccccc2)c2ccc(C#N)cc21 (single isomer, unassigned) [Example 40B]
+++ (>50)

Query the reported Ki(h-OT)/Ki(h-V1b) for recombinant human oxytocin receptors (Homo sapiens); item: CCOc1ncccc1C1(NC(=O)N2CCN(C3CCN(C)CC3)CC2)C(=O)N(S(=O)(=O)c2ccc(OC)cc2OC)c2ccc(C#N)cc21 (racemic)
+++ (>50)

Query the reported Ki(h-OT)/Ki(h-V1b) for recombinant human oxytocin receptors (Homo sapiens); item: CCOc1ncccc1C1(NC(=O)N2CCN(C3CCNCC3)CC2)C(=O)N(S(=O)(=O)c2ccc(OC)cc2OC)c2ccc(C#N)cc21.O=C(O)C(F)(F)F.O=C(O)C(F)(F)F (racemic)
++ (>25-50)

Query the reported Ki(h-OT)/Ki(h-V1b) for recombinant human oxytocin receptors (Homo sapiens); item: CCOc1ncccc1C1(NC(=O)N2CCN(C3CCN(C)CC3)CC2)C(=O)N(S(=O)(=O)c2ccccc2)c2ccc(C#N)cc21 (racemic)
++ (>25-50)
